Reported viability, T/C values follow for various molecules
- Tested on: 616215-338-R-J1-PDC tumor spheroids, viability
- protocol-notes: Anticancer human tumor 616215-338-R-J1-PDC patient-derived colon adenocarcinoma cell line growth inhibition [GQUAD]
- condition-details: second compound 10 µM; first compound 0.316 µM; stronger effect = lower value; spheroids with HUVEC and MSC
Express your answer in %, writing the number without its unit.

// recorded viability, T/C for COc1ncnc(C2CC2)c1-c1ncc2cnn(Cc3ccc(-c4nc(C(F)(F)F)cn4C(C)C)cc3)c2n1 + CN(C)c1ccc(Nc2c3ccc(NC(=O)CCN4CCCC4)cc3nc3cc(NC(=O)CCN4CCCC4)ccc23)cc1 : 97.3

Entry CC[C@@]1(O)C(=O)OCc2c1cc1n(c2=O)Cc2cc3c(CN(C)C)c(O)ccc3nc2-1 + Cc1[nH]c2ccc(F)cc2c1-c1nc2c3cccnc3c3ncccc3c2[nH]1 — recorded viability, T/C = 31.4

Record O=C(c1cc(Cc2n[nH]c(=O)c3ccccc23)ccc1F)N1CCN(C(=O)C2CC2)CC1 + Cc1cnc(CNC(=O)c2c(=O)c3ccc(N4CCCN(C)CC4)nc3n3c2sc2ccccc23)cn1 , field viability, T/C: 25.2

// viability, T/C lookup, molecule = CC1COCCN1c1cc(C2(S(C)(=N)=O)CC2)nc(-c2ccnc3[nH]ccc23)n1 (stereo unspecified) + CN(C)c1ccc(Nc2c3ccc(NC(=O)CCN4CCCC4)cc3nc3cc(NC(=O)CCN4CCCC4)ccc23)cc1 , result: 89.2

Kindly note the recorded viability, T/C for COc1cc(C2c3cc4c(cc3C(OC3OC5COC(C)OC5C(O)C3O)C3COC(=O)C23)OCO4)cc(OC)c1O (stereo unspecified) + Cc1[nH]c2ccc(F)cc2c1-c1nc2c3cccnc3c3ncccc3c2[nH]1 , which is 67.9

Memo: CC[C@@]1(O)C(=O)OCc2c1cc1n(c2=O)Cc2cc3c(CN(C)C)c(O)ccc3nc2-1 + Cc1cnc(CNC(=O)c2c(=O)c3ccc(N4CCCN(C)CC4)nc3n3c2sc2ccccc23)cn1 , reported viability, T/C: 16.1

Recorded viability, T/C (molecule Cc1[nH]c2ccccc2c1CCNCc1ccc(/C=C/C(=O)NO)cc1 + Cc1cnc(CNC(=O)c2c(=O)c3ccc(N4CCCN(C)CC4)nc3n3c2sc2ccccc23)cn1 ): 0.21

viability, T/C reported for this molecule O=C(NO)c1cnc(N2CCN(S(=O)(=O)c3ccc4ccccc4c3)CC2)nc1 + Cc1cnc(CNC(=O)c2c(=O)c3ccc(N4CCCN(C)CC4)nc3n3c2sc2ccccc23)cn1 : 0.15

----------
Overview of recorded IC50 for various molecules
- Test system: 616215-338-R-J1-PDC tumor spheroids, viability
- protocol-notes: Anticancer human tumor 616215-338-R-J1-PDC cell line growth inhibition [GQUAD];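 also: spheroids exposed to agents for 7 days before readout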
- condition-details: curve of first compound; second compound 0.0316 µM; spheroids with HUVEC and MSC
Numbers only; they are read as nM.

- molecule: "COc1cc(C2c3cc4c(cc3C(OC3OC5COC(C)OC5C(O)C3O)C3COC(=O)C23)OCO4)cc(OC)c1O (stereo not given) + Cc1cnc(CNC(=O)c2c(=O)c3ccc(N4CCCN(C)CC4)nc3n3c2sc2ccccc23)cn1"
  IC50 / nM: 481

Looking up CC(C)(O)C1CCC(Nc2ccc3ncc(-c4cccc(C(F)(F)F)c4)n3n2)CC1 (stereo not given) + CN(C)c1ccc(Nc2c3ccc(NC(=O)CCN4CCCC4)cc3nc3cc(NC(=O)CCN4CCCC4)ccc23)cc1 , I see its IC50 listed as 634
